molecular target: Carboxy-terminal domain RNA polymerase II polypeptide A small phosphatase 1 (Homo sapiens); assay: inhibitors of CTDSP1, concentration-response testing, biochemical assay, absorbance-based, actives from ultra-high-throughput screening (AID 540297); type: functional
Sequence (Q9GZU7 whole entry, the tested form may be a part): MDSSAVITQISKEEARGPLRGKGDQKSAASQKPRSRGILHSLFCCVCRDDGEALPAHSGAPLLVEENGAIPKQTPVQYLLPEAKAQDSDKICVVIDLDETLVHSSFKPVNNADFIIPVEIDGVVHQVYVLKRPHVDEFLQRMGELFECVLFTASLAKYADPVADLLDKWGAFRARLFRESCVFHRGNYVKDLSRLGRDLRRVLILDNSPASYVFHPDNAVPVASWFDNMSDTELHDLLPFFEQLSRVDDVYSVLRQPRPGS
Calls of active or inactive are those of the source.
Answer each item with its documented IC50.

The cases that follow already have their IC50 on record.
smiles_input=COc1ccc(NS(=O)(=O)c2cccc(C(=O)N/N=C/c3c(F)c(F)c(F)c(F)c3F)c2)cc1 result="10.7 µM (active)"
smiles_input=Nc1cc(C(=O)OCC(=O)c2ccc(CC(=O)N3CCOCC3)s2)ccc1Cl result="5.84 µM (active)"
smiles_input=COc1ccc2c(c1)c(=O)oc1c(C)c(OCc3cc(C(=O)O)oc3C)ccc12 result="9.08 µM (active)"

Working through the 4 compounds below one at a time, give IC50 for each.
1. Cn1c(SCC(=O)Nc2nncs2)nnc1C1CC1
2. O=C(CCCC(=O)Nc1cccc(Br)c1)N/N=C/c1cc([N+](=O)[O-])ccc1O
3. CCc1ccc(/C(C)=N/NC(=O)CNC(=O)/C=C/c2ccco2)cc1
4. Cc1ccc(NC(=O)CN2C(=O)N/C(=C/c3cc(C)n(-c4ccc(C(=O)O)cc4)c3C)C2=O)cc1

Result:
["4.69 µM (active)", "6.26 µM (active)", "0.844 µM (active)", "7.93 µM (active)"]

* * *

target: Exodeoxyribonuclease V (Escherichia coli (strain K12), UniProt P04993+P07648+P08394); assay: E. coli RecBCD inhibitors, dose response, counter-screen for AddAB inhibitor project, absorbance, V66 E. coli, mutant T4 phage (AID 492957); assay type: functional, cell-based, Escherichia coli str. K-12 substr. MG1655
Sequence (P04993 whole entry): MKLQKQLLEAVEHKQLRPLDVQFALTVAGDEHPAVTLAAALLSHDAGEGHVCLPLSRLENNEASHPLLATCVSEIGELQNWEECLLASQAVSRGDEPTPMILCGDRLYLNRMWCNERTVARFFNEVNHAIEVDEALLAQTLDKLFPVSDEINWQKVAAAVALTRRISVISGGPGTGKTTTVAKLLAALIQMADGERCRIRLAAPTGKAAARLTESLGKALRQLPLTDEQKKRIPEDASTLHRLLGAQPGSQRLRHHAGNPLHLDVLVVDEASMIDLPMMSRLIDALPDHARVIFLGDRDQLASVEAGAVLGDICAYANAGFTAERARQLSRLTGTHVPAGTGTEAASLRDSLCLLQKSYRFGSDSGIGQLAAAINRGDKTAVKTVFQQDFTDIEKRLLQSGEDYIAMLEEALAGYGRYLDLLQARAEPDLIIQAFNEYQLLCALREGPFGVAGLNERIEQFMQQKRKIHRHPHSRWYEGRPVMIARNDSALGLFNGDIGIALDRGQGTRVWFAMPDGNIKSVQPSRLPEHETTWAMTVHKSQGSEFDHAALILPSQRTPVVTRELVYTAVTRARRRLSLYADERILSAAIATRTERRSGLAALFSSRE
Sequence (P07648 whole entry): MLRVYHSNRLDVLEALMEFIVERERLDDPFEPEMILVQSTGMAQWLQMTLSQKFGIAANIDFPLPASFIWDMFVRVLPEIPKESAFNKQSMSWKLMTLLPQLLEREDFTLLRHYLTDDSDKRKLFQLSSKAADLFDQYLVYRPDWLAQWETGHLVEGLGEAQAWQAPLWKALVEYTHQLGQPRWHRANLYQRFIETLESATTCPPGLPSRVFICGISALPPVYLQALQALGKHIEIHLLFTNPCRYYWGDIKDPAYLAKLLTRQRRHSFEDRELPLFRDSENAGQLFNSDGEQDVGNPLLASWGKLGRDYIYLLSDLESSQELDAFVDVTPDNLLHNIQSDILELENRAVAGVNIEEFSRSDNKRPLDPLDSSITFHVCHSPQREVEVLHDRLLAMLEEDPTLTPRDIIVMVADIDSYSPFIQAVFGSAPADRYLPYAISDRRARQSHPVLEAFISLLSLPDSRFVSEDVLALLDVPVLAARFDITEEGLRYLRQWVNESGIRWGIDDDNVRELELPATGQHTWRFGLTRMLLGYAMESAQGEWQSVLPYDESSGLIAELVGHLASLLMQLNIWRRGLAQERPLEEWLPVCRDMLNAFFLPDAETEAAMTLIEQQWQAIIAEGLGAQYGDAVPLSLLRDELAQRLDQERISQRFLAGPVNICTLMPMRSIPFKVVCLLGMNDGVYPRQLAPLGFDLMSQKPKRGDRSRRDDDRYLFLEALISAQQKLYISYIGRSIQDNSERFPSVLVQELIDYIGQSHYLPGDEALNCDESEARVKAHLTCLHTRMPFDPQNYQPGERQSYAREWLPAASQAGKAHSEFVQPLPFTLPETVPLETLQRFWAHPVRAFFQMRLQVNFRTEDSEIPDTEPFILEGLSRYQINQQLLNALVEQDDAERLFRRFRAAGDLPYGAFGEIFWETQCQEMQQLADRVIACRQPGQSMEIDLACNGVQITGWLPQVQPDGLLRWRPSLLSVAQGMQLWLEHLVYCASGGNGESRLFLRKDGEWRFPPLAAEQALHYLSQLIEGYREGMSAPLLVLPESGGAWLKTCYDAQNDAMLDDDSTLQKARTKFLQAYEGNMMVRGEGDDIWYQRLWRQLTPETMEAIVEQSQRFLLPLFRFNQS
Sequence (P08394 whole entry): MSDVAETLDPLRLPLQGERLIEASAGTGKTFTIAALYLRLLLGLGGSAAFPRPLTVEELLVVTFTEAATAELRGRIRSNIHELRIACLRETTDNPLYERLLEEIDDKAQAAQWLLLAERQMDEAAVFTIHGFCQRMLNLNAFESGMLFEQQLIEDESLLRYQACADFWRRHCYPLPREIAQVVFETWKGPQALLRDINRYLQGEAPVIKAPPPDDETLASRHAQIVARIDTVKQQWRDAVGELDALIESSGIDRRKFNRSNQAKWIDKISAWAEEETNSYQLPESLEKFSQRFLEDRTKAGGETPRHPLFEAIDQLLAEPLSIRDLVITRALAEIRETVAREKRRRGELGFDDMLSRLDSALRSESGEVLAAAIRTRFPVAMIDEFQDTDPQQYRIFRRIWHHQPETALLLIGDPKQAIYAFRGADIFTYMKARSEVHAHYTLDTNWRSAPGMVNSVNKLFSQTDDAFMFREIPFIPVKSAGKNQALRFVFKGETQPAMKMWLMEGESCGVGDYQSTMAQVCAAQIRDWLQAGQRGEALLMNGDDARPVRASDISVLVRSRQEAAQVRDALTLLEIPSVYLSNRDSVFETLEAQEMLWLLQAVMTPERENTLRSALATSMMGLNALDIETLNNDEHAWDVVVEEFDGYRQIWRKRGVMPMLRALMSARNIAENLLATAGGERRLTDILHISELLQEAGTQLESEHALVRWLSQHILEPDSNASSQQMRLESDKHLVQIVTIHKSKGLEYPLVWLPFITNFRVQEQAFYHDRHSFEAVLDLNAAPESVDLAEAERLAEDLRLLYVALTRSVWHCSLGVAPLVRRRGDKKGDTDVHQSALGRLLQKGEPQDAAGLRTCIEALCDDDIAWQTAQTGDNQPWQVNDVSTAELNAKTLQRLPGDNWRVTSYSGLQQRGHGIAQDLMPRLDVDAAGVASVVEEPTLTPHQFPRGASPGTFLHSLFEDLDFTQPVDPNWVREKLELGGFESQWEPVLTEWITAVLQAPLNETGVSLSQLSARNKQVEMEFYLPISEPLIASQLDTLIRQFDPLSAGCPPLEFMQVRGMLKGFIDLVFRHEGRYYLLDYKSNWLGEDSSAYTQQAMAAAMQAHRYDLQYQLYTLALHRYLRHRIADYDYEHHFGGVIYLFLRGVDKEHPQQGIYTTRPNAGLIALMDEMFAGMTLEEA
The source made the active and inactive calls.
Task for the reader: assign each of the following compounds its reported IC50.

// worked examples, IC50 included
smiles_input=COc1ccc(NC(=O)Cn2cc(C(=O)c3ccco3)c3ccccc32)cc1 system="Exodeoxyribonuclease V (Escherichia coli (strain K12), UniProt P04993+P07648+P08394)" result="> 119 µM (inactive)"
smiles_input=O=[N+]([O-])c1ccc(N/N=C/c2ccc[nH]2)cc1 system="Exodeoxyribonuclease V (Escherichia coli (strain K12), UniProt P04993+P07648+P08394)" result="> 119 µM (inactive)"
smiles_input=COc1cccc(/C=N\NC(=O)c2ccc(Cn3cc(Br)c([N+](=O)[O-])n3)o2)c1O system="Exodeoxyribonuclease V (Escherichia coli (strain K12), UniProt P04993+P07648+P08394)" result="> 119 µM (inactive)"
smiles_input=C=CCN1C(=O)/C(=N/Nc2ccccc2O)c2ccccc21 system="Exodeoxyribonuclease V (Escherichia coli (strain K12), UniProt P04993+P07648+P08394)" result="> 118 µM (inactive)"

Next item in the queue.
Lab note: compound COc1ccc(/C=C2\SC(=O)N(CC(=O)NNC(=O)c3ccccc3O)C2=O)cc1OC tested on Exodeoxyribonuclease V (Escherichia coli (strain K12), UniProt P04993+P07648+P08394); recorded IC50 was > 119 µM (inactive)

* * *

molecular target: DNA dC->dU-editing enzyme APOBEC-3G (Homo sapiens, UniProt Q9HC16); format: functional;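 also: Dose-response counterscreen measuring inhibition of APOBEC3G DNA deaminase activity, run while confirming APOBEC3A inhibitors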
Sequence (Q9HC16 whole entry): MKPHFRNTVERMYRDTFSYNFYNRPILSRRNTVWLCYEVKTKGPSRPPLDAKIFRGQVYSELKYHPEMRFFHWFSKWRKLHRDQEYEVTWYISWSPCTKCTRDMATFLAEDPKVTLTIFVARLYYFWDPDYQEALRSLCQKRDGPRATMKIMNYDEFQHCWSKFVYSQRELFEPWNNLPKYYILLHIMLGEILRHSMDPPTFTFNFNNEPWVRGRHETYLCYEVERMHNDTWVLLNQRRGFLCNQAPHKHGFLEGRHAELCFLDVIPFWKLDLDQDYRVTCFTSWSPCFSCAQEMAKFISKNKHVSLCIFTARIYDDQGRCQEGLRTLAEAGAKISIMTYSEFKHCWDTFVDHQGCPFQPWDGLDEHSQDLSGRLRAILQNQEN
Activity calls are given as the source filed them.
Answer with one of the outcomes 1 (yes) (active), 0 (no) (inactive)

compound=CCn1ncc(-c2ccnc3cc(C(=O)O)nn23)c1C class="0 (no)"
compound="COc1cc2c(cc1OC)-c1c(OC)c(OC)cc3c1[C@H](C2)[N+](C)(C)CC3 [GLAUCINE METHIODIDE]" class="1 (yes)"
compound="CC(C)NC(=O)C(C)N1CCN(S(=O)(=O)c2ccc3ccccc3c2)CC1 (centres undefined)" class="1 (yes)"

Let's switch to this compound now.
Task: State the result this test recorded for COc1ccc(S(=O)(=O)N(CCc2ccccc2)CC(=O)NC(C)C)cc1 .
Result: 1 (yes)
